Values compiled from patent US20250333397A1.

- System: Target C mRNA
- PROCEDURE TEXT: RT-qPCR splicing assay panel, Target C canonical junction (CJ) mRNA
- Format: cell-based, human
- CONDITION DETAILS: Homo sapiens, canonical junction (CJ) mRNA, RT-qPCR panel, Table 4A; read-out: Target C, decrease in CJ mRNA levels, IC50
# maps each entry to its IC50
MEASURED PROPERTY: IC50

1) CC1(NC2CCN(c3ccc(-c4cc(F)c(-c5cn[nH]c5)cc4O)nn3)C2)CC1 (stereo not drawn) = < 100 nM
2) COc1cc(-c2cc(O)c(-c3ccc(N4CC[C@@H](N[C@H]5C[C@@H](F)C5)C4)nn3)cc2F)cnn1 (racemic) = 100 to 1000 nM
3) COc1cc(-c2cc(O)c(-c3ccc(N4CCC(NCC5CC5)C4)nn3)cc2F)ncn1 (stereo not drawn) = > 10000 nM
4) CN(C1CCC1)[C@@H]1CCN(c2ccc(-c3ccc(-c4cn[nH]c4)cc3O)nn2)C1 = 100 to 1000 nM
5) NCCNC1CCN(c2ccc(-c3ccc(-c4cn[nH]c4)cc3O)nn2)C1 (stereo not drawn) = 1000 to 10000 nM
6) Oc1cc(-c2cc(OC(F)(F)F)ncn2)ccc1-c1ccc(N2CCC(NCC3CC3)C2)nn1 (stereo not drawn) = > 10000 nM
7) COc1cc(-c2cc(O)c(-c3ccc(N4CC[C@H](NC(C)(C)C)C4)nn3)cc2F)ncn1 = 100 to 1000 nM
8) COc1cc(-c2ccc(-c3nnc(N4CC[C@H](NC5CCC5)C4)cc3C)c(O)c2)cnn1 = 1000 to 10000 nM
9) COc1cc(-c2ccc(-c3ccc(N4CCC(C)(NC(C)C)C4)nn3)c(O)c2)cnn1 (stereo not drawn) = < 100 nM
10) Cc1ncc(-c2ccc(-c3ccc(N4CCC(NC5CCC5)C4)nn3)cc2F)s1 (stereo not drawn) = 1000 to 10000 nM
11) Cc1nc(C)c(-c2cc(O)c(-c3ccc(N4CC[C@H](NC5CCC5)C4)nn3)cc2F)s1 = 1000 to 10000 nM
12) COc1cc(-c2cc(O)c(-c3ccc(N4CC[C@@](C)(NCC5CC5)C4)nn3)cc2F)cnn1 = 100 to 1000 nM
13) CC(C)(C)N[C@H]1CCN(c2ccc(-c3ccc(-c4cn[nH]c4)cc3O)nn2)C1 [Compound 101] = < 100 nM
14) Cc1ncc(-c2cc(O)c(-c3ccc(N4CC[C@@H](NC5CCC5)C4)nn3)cc2F)s1 = < 100 nM
15) Cn1cc2cc(-c3ccc(-c4ccc(N5CCC(NC6CCC6)C5)nn4)c(O)c3)ncc2n1 (stereo not drawn) = 100 to 1000 nM
16) Cn1ccc(-c2ccc(-c3ccc(N4CCC(NC5CCC5)C4)nn3)c(O)c2)nc1=O (stereo not drawn) = 1000 to 10000 nM
17) COc1cc(-c2cc(O)c(-c3ccc(N4CC[C@@H](NC5CC5)C4)nn3)cc2F)cnn1 = 1000 to 10000 nM
18) Cc1nsc(-c2cc(O)c(-c3ccc(N4CC[C@@H](NCC5CC5)C4)nn3)cc2F)n1 = 100 to 1000 nM
19) Oc1cc(-n2cnnc2)ccc1-c1ccc(N2CCC(NC3CCC3)C2)nn1 (stereo not drawn) = > 10000 nM
20) Cc1nnc(-c2ccc(-c3ccc(N4CC[C@@H](NCC5CC5)C4)nn3)c(O)c2)s1 = 100 to 1000 nM
21) CNc1cc(-c2ccc(-c3ccc(N4CCC(NCC5CC5)C4)nn3)c(O)c2)ncn1 (stereo not drawn) = 100 to 1000 nM
